# system: BRAF V600E (Homo sapiens, UniProt P15056, V600E)
# Construct: endogenous C-terminal HiBiT fusion tag on BRAF V600E allele; endogenous in cells; host or cells: A375 clone 1F10 (CRISPR-Cas9 knock-in of the HiBiT tag; parental A375 from ATCC)
# Sequence (P15056 whole entry V600E, the tested form may be a part): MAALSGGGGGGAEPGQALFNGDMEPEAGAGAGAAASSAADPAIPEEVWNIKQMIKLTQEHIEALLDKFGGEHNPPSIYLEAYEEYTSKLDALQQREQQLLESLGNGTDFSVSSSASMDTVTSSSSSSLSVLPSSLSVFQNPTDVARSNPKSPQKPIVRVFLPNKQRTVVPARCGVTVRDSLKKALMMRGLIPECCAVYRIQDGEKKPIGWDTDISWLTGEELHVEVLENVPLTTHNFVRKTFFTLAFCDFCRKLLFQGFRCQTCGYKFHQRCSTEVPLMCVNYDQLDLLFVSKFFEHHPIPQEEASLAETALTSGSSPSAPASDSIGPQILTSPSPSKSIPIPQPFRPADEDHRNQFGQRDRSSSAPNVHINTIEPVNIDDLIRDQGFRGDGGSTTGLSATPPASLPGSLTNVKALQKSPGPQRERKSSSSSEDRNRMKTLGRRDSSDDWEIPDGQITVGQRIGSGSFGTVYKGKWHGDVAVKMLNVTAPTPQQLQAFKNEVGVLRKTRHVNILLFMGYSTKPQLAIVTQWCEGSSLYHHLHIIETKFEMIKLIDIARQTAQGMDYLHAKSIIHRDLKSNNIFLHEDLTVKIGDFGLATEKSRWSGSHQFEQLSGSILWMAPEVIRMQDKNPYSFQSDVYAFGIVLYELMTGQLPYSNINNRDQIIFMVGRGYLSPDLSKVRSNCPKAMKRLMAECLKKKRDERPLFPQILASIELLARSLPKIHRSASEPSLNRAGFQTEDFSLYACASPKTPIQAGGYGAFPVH
# procedureSummary: BRAF HiBiT degradation assay, C-terminal HiBiT-tagged BRAF V600E A375 cells (clone 1F10), Nano-Glo HiBiT Lytic assay
# Format: cell-based
# details: A375 (BRAF V600E, Class 1); DC50 at 50% degradation
quantityMeasured: DC50

Look over these answered cases.
O=C1CCN(c2ccc(N3CCC(CN4CCN(c5cnc(-n6cc(-c7cc(Cl)cc(NS(=O)(=O)N8CCCC8)c7F)c(-c7ccncc7)n6)nc5)CC4)CC3)cc2)C(=O)N1 : < 10 nM
CCC(C)S(=O)(=O)Nc1cc(Cl)cc(-c2cn(-c3ccc(N4CCN(CC5CCN(c6ccc([C@H]7CCC(=O)NC7=O)cn6)CC5)CC4)cc3)nc2-c2ccncc2)c1F (mixture of isomers) : < 10 nM
CCCS(=O)(=O)Nc1cccc(-c2nc(C3CCC4(CC3)CCN(C(=O)C3CCN(c5ccc(C(=O)NC6CCC(=O)NC6=O)nc5)CC3)CC4)sc2-c2ccnc(N)n2)c1F (racemic) : 10 to 50 nM

Challenge: What does the record list as DC50 for CCCS(=O)(=O)Nc1cccc(-c2nc(C3CCC4(CC3)CN(C(=O)CC3CCN(C5CCN(c6ccc7c(c6)C(=O)N(C6CCC(=O)NC6=O)C7=O)CC5)CC3)C4)sc2-c2ccnc(N)n2)c1F (racemic) ?
Response given: 10 to 50 nM

Challenge: Item under review: C[C@@H]1CN(c2ccc(-n3cc(-c4cc(F)cc(NS(=O)(=O)N5CCCC5)c4F)c(-c4ccncc4)n3)c(F)c2)CCN1CC1CCN(c2ccc(C3CCC(=O)NC3=O)cn2)CC1 (mixture of isomers) . Reported DC50?
Response given: < 10 nM

---

# system: BRAF V600E (Homo sapiens, UniProt P15056, V600E)
# Construct: endogenous C-terminal HiBiT fusion tag on BRAF V600E allele; endogenous in cells; host or cells: A375 clone 1F10 (CRISPR-Cas9 knock-in of the HiBiT tag; parental A375 from ATCC)
# procedureSummary: BRAF HiBiT degradation assay, C-terminal HiBiT-tagged BRAF V600E A375 cells (clone 1F10), Nano-Glo HiBiT Lytic assay
# Format: cell-based
# details: A375 (BRAF V600E); DC50 at 50%: fitted conc. at Y=50
quantityMeasured: DC50

Consider the following illustrative entries.
CCCS(=O)(=O)Nc1cccc(-c2nc(C(C)(C)C)sc2-c2ccnc(NC3CC4(C3)CN(CC3CCN(CC5CCN(c6ccc(C7CCC(=O)NC7=O)cc6)CC5)CC3)C4)n2)c1F (racemic) : 50 to 500 nM
CCCS(=O)(=O)Nc1cccc(-c2nc(C3CCN(C(=O)C4CCN(C(=O)C5CCN(c6ccc(C7CCC(=O)NC7=O)cc6)CC5)CC4)CC3)sc2-c2ccnc(N)n2)c1F (racemic) : < 10 nM
CCCS(=O)(=O)Nc1cccc(-c2nc(C(C)(C)C)sc2-c2ccnc(Nc3cccc(OC4CCN(CC5CCN(c6ccc7c(=O)n(C8CCC(=O)NC8=O)ccc7c6)CC5)CC4)c3)n2)c1F (racemic) : 10 to 50 nM
CCCS(=O)(=O)Nc1cccc(-c2nc(C3CCN(C(=O)C4(C)CCN(C(=O)C5CCN(c6ccc(C7CCC(=O)NC7=O)cc6)CC5)CC4)CC3)sc2-c2ccnc(NC(C)C)n2)c1F (racemic) : < 10 nM

Challenge: Return DC50 measured with BRAF V600E (Homo sapiens, UniProt P15056, V600E) given this molecule: CCCS(=O)(=O)Nc1cccc(-c2nc(C(C)(C)C)sc2-c2ccnc(NC3CC4(C3)CN(C(=O)C3CN(C5CCN(c6ccc7c(c6)C(=O)N(C6CCC(=O)NC6=O)C7=O)CC5)C3)C4)n2)c1F (racemic)
Response given: 50 to 500 nM
